Each item that follows carries a reported BMC10 any morphological effect or mortality.
Tested on: Danio rerio embryo
Assay: BMC10 any morphological effect or mortality at 120 hpf; higher = less toxic

Solved cases (5 shown):
CCCCCCOC(=O)NC(=N)c1ccc(NCc2nc3cc(C(=O)N(CCC(=O)OCC)c4ccccn4)ccc3n2C)cc1 [Dabigatran etexilate]    > 100 µM
O=c1c(O)c(-c2ccc(O)cc2)oc2cc(O)cc(O)c12    10 µM
CC(C)c1cccc(=O)c(O)c1    3.83 µM
CCOC(=O)c1ccc(OC(=O)CCCCCNC(=N)N)cc1.CS(=O)(=O)O [Gabexate]    > 100 µM
CC(=O)O[C@H]1[C@H]2O[C@]23[C@@H]2CC[C@@H]4C[C@@H](O)CC[C@]4(C)[C@H]2CC[C@]3(C)[C@H]1c1ccc(=O)oc1    27.2 µM

input: I am curious: what BMC10 any morphological effect or mortality value has been reported for `O=c1c(O)c(-c2ccccc2)oc2cc(O)cc(O)c12` ?
output: 12.3 µM

input: I am curious: what BMC10 any morphological effect or mortality value has been reported for `CS(=O)(=O)O.CS(=O)(=O)O.N=C(N)Nc1ccc(C(=O)Oc2ccc3cc(C(=N)N)ccc3c2)cc1` ?
output: > 100 µM

###

Each item that follows carries a reported BMC10 any morphological effect or mortality.
Tested on: Danio rerio embryo
Assay: BMC10 any morphological effect or mortality at 120 hpf; higher = less toxic

Solved cases (3 shown):
O=c1[nH]c(=O)n([C@@H]2O[C@H](CO)[C@@H](O)[C@@H]2F)cc1I [Fialuridine]    > 100 µM
C=C[C@H]1C[C@@]1(NC(=O)[C@@H]1C[C@@H]2CN1C(=O)[C@H](C(C)(C)C)NC(=O)O[C@@H]1C[C@H]1CCCCCc1nc3ccc(OC)cc3nc1O2)C(=O)NS(=O)(=O)C1CC1 [Grazoprevir]    > 100 µM
COc1ccc([C@@H]2CC(=O)c3c(O)cc(O[C@@H]4O[C@H](CO[C@@H]5O[C@@H](C)[C@H](O)[C@@H](O)[C@H]5O)[C@@H](O)[C@H](O)[C@H]4O)cc3O2)cc1O [Hesperidin]    > 100 µM

input: I am curious: what BMC10 any morphological effect or mortality value has been reported for `CC(=O)c1cc([N+](=O)[O-])c(Sc2cccc(Cl)c2Cl)s1` ?
output: 0.246 µM

input: I am curious: what BMC10 any morphological effect or mortality value has been reported for Cl.Nc1ccn([C@@H]2O[C@H](CO)[C@@H](O)C2(F)F)c(=O)n1 [Gemcitabine] ?
output: > 100 µM

input: I am curious: what BMC10 any morphological effect or mortality value has been reported for CCC(CC)O[C@@H]1C=C(C(=O)O)C[C@H](N)[C@H]1NC(C)=O [Oseltamivir acid] ?
output: > 100 µM

###

Test system: Danio rerio embryo
Assay: BMC10 any morphological effect or mortality at 120 hpf; higher = less toxic
endpoint: BMC10 any morphological effect or mortality

Solved cases (3 shown):
O=C(/C=C/c1ccc(O)c(O)c1)O[C@@H]1C[C@](O)(C(=O)O)C[C@@H](O)[C@H]1O [Chlorogenic acid]    > 100 µM
CC(=O)NC1[C@H]([C@H](O)[C@H](O)CO)O[C@@](O[C@H]2[C@@H](O)[C@@H](CO)O[C@@H](O[C@@H]([C@H](O)[C@@H](O)C=O)[C@H](O)CO)[C@@H]2O)(C(=O)[O-])C[C@@H]1O.[Na+] (some centres undefined) [N-Acetylneuraminoyllactose]    > 100 µM
O=C(N/N=C/c1ccc(O)c(O)c1)c1cc2ccccc2cc1O [Dynasore]    10.2 µM

Then there is this molecule:
input: I am curious: what BMC10 any morphological effect or mortality value has been reported for O=C(O[C@@H]1Cc2c(O)cc(O)cc2O[C@H]1c1cc(O)c(O)c(O)c1)c1cc(O)c(O)c(O)c1 [(-)-Gallocatechin gallate] ?
output: > 100 µM

###

Each item that follows carries a reported BMC10 any morphological effect or mortality.
System: Danio rerio embryo
Experiment: BMC10 any morphological effect or mortality at 120 hpf; higher = less toxic

input: I am curious: what BMC10 any morphological effect or mortality value has been reported for `CC[C@H](C)[C@H]1O[C@]2(CC[C@@H]1C)C[C@@H]1C[C@@H](C/C=C(\C)[C@@H](O[C@H]3C[C@H](OC)[C@@H](O[C@H]4C[C@H](OC)[C@@H](O)[C@H](C)O4)[C@H](C)O3)[C@@H](C)/C=C/C=C3\CO[C@@H]4[C@H](O)C(C)=C[C@@H](C(=O)O1)[C@]34O)O2` ?
output: 0.156 µM

input: I am curious: what BMC10 any morphological effect or mortality value has been reported for `O=c1cc(-c2ccc(O)cc2)oc2cc(O)c(O)c(O)c12` ?
output: > 100 µM

input: I am curious: what BMC10 any morphological effect or mortality value has been reported for CC(C)OC(=O)[C@H](C)NP(=O)(OC[C@H]1O[C@@H](n2ccc(=O)[nH]c2=O)[C@](C)(F)[C@@H]1O)Oc1ccccc1 (some centres not stated) ?
output: > 100 µM

input: I am curious: what BMC10 any morphological effect or mortality value has been reported for CC1(C)[C@@H]2CC[C@@]1(C)C(=O)C2 [(1R)-(+)-Camphor] ?
output: > 100 µM

input: I am curious: what BMC10 any morphological effect or mortality value has been reported for `CC1=CC(=O)/C(=C/c2ccc(O)c(O)c2)O1` ?
output: > 100 µM

input: I am curious: what BMC10 any morphological effect or mortality value has been reported for `CCCn1c(=O)[nH]c2nc(-c3ccc(S(=O)(=O)N4CCN(c5ccc(Cl)cc5)CC4)cc3)[nH]c2c1=O` ?
output: > 100 µM

input: I am curious: what BMC10 any morphological effect or mortality value has been reported for `C[C@H]1CCC/C=C/[C@@H]2C[C@H](O)C[C@H]2[C@H](O)/C=C/C(=O)O1` ?
output: 1.09 µM

###

System: Danio rerio embryo
Test: BMC10 any morphological effect or mortality at 120 hpf; higher = less toxic
endpoint: BMC10 any morphological effect or mortality

Oc1cc(O)c2c(c1)O[C@H](c1ccc(O)c(O)c1)[C@H](O)[C@H]2c1c(O)cc(O)c2c1O[C@H](c1ccc(O)c(O)c1)[C@@H](O)C2 [Procyanidin B1]    > 100 µM
CCOCc1nc2c(N)nc3ccccc3c2n1CC(C)(C)O [Resiquimod]    > 100 µM
CC(C)[C@H](N)C(=O)OCCOCn1cnc2c(=O)nc(N)[nH]c21.Cl [Valacyclovir]    > 100 µM
Fc1cc(F)c2c(c1)C1C=CCC1C(c1cccnc1)N2 (stereo unspecified) [Golgicide A]    1.37 µM
O=C(O)c1cc(O)c2c(c1)[C@H]([C@H]1c3cc(C(=O)O)cc(O)c3C(=O)c3c(O[C@@H]4O[C@H](CO)[C@@H](O)[C@H](O)[C@H]4O)cccc31)c1cccc(O[C@@H]3O[C@H](CO)[C@@H](O)[C@H](O)[C@H]3O)c1C2=O [Sennoside A]    > 100 µM

Then there is this molecule:
input: I am curious: what BMC10 any morphological effect or mortality value has been reported for CC(=O)Nc1nc(C)c(-c2ccc(Cl)c(S(=O)(=O)NCCO)c2)s1 [PIK-93] ?
output: > 100 µM

###

Tested on: Danio rerio embryo
Assay: BMC10 any morphological effect or mortality at 120 hpf; higher = less toxic
endpoint: BMC10 any morphological effect or mortality

Solved cases (5 shown):
COc1cc(C[C@H]2C(=O)OC[C@@H]2Cc2ccc(OC)c(OC)c2)ccc1O    > 100 µM
S=C([S-])OC1CC2CC1C1CCCC21.[K+] (stereo unspecified)    > 100 µM
N#C[C@@]1(c2ccc3c(N)ncnn23)O[C@H](CO)[C@@H](O)[C@H]1O    > 100 µM
C[C@H]1O[C@@H](O[C@H]2CC[C@@]3(C)[C@@H](CC[C@]4(C)[C@@H]3C=C[C@]35OC[C@@]6(CCC(C)(C)C[C@H]63)[C@@H](O)C[C@]54C)[C@]2(C)CO)[C@H](O)[C@@H](O[C@@H]2O[C@H](CO)[C@@H](O)[C@H](O)[C@H]2O)[C@H]1O    > 100 µM
COC(=O)N[C@H](C(=O)N[C@@H](Cc1ccccc1)[C@@H](O)CN(Cc1ccc(-c2ccccn2)cc1)NC(=O)[C@@H](NC(=O)OC)C(C)(C)C)C(C)(C)C    > 100 µM

Then there is this compound:
input: I am curious: what BMC10 any morphological effect or mortality value has been reported for `O=C(OC[C@H]1O[C@@H](OC(=O)c2cc(O)c(O)c(OC(=O)c3cc(O)c(O)c(O)c3)c2)[C@H](OC(=O)c2cc(O)c(O)c(OC(=O)c3cc(O)c(O)c(O)c3)c2)[C@@H](OC(=O)c2cc(O)c(O)c(OC(=O)c3cc(O)c(O)c(O)c3)c2)[C@@H]1OC(=O)c1cc(O)c(O)c(OC(=O)c2cc(O)c(O)c(O)c2)c1)c1cc(O)c(O)c(OC(=O)c2cc(O)c(O)c(O)c2)c1` ?
output: 32.8 µM
